tested on: A549 NSCLC; test: NCI tumour cell line growth inhibition, 48 h
Task for the reader: assign each of the following compounds its reported TGI.

GET /values?readout=TGI&system=A549 NSCLC&item= CCCOc1ccc(/C=C\c2cc(OC)c(OC)c(OC)c2)cc1
> 100 µM

GET /values?readout=TGI&system=A549 NSCLC&item= N#Cc1cnn2c1n[n+]([O-])c1ccc(Cl)cc12
> 79.8 µM

GET /values?readout=TGI&system=A549 NSCLC&item= CC(=O)/C=C1/c2ccccc2N(C(C)=O)C1O (stereo unspecified)
> 100 µM

GET /values?readout=TGI&system=A549 NSCLC&item= Cc1c(C(=O)/C=C/c2ccc(O)cc2)nnn1-c1ccnc2c(C(F)(F)F)cccc12
> 100 µM

GET /values?readout=TGI&system=A549 NSCLC&item= COc1ccc2oc(=N)c(C(N)=S)cc2c1
> 100 µM

GET /values?readout=TGI&system=A549 NSCLC&item= O=C1CCC(c2nc3ccccc3o2)C(=O)N1 (stereo unspecified)
> 100 µM

---

test system: HOP-92 NSCLC; experiment: NCI tumour cell line growth inhibition, 48 h
Task for the reader: assign each of the following compounds its reported TGI.

Using the record for CCOC(=O)CCc1c(C(=O)OCC)[nH]c(/C=C2/NC(=O)C(C)=C2CC)c1C , report its TGI.
42.4 µM

Using the record for Cc1ccc2c(c1)C(C1Cc3c(C)cccc3C1=O)OC2=O (stereo unspecified) , report its TGI.
> 100 µM

Using the record for O=C(CNC(=O)c1cccc2ccccc12)Nc1ccccc1Oc1cccc(O)c1 , report its TGI.
> 25 µM

Using the record for COC(=O)Nc1ccc2ccc3c(NC(=O)OC)ccc4ccc1c2c43 (tested in a mixture with another compound) , report its TGI.
14.1 µM

Using the record for CC(=O)Nc1c(C)cc(OCC(=O)O)cc1C , report its TGI.
> 100 µM

Using the record for N#Cc1c(NC(=O)c2cccs2)[n+]([O-])c2ccccc2[n+]1[O-] , report its TGI.
> 100 µM

Using the record for CC(C)=CC(=O)Cc1nc2ccccc2[nH]c1=O , report its TGI.
68 µM

Using the record for CC1(C)OC2C(CO)OC(n3ccc(=O)[nH]c3=O)C2O1 (stereo unspecified) , report its TGI.
> 100 µM

Using the record for CC(=O)/C=C1/c2ccccc2N(C(C)=O)C1O (stereo unspecified) , report its TGI.
> 100 µM

Using the record for COc1ccc2oc(=N)c(C(N)=S)cc2c1 , report its TGI.
50.7 µM

Using the record for COc1cc(C2c3cccc4cccc(c34)C3CCC(=O)N32)cc(O)c1O (stereo unspecified) , report its TGI.
> 50 µM

---

Task for the reader: assign each of the following compounds its reported GI50.

GET /values?readout=GI50&system=NCI-H460 lung&item= CCCCCCn1c(-c2ccc(C(=O)O/N=C(\N)c3ccc(OC)cc3)cc2)nc(-c2ccccc2)c1-c1ccccc1
1.85 µM

GET /values?readout=GI50&system=NCI-H460 lung&item= O=c1cc/c(=N\Nc2ccccc2)c(=O)/c1=N/Nc1ccccc1
> 50 µM

GET /values?readout=GI50&system=NCI-H460 lung&item= Clc1nc(Cl)c2ncn(C/C=C\Cn3cnc4c(Cl)nc(Cl)nc43)c2n1
3.24 µM

GET /values?readout=GI50&system=NCI-H460 lung&item= Cn1c2ccccc2c2c(=O)n(CCCC(=O)NCC(=O)OC(=NC3CCCCC3)NC3CCCCC3)c3c(-c4ccccc4)nnn3c21
32 µM

GET /values?readout=GI50&system=NCI-H460 lung&item= COc1n[n+]([O-])c(C)cc1[N+](=O)[O-]
3.05 µM

GET /values?readout=GI50&system=NCI-H460 lung&item= O=C1N=C2c3c(sc4c3CCCC4)N=CN2C1N=Nc1ccc(Cl)cc1 (stereo not given)
27.8 µM

GET /values?readout=GI50&system=NCI-H460 lung&item= Cc1sc2ncnc(Sc3nc4ccccc4[nH]3)c2c1C
27.6 µM

GET /values?readout=GI50&system=NCI-H460 lung&item= Nc1cc(N)c2nc(-c3ccccc3)c(Nc3ccc(F)cc3)nc2c1
26.4 µM

GET /values?readout=GI50&system=NCI-H460 lung&item= COc1ccc(NC2=C(Sc3nc(C)cc(C)n3)C(=O)N(Cc3ccccc3)C2=O)cc1Cl
> 160 µM

GET /values?readout=GI50&system=NCI-H460 lung&item= COc1ccc(-c2ccc(/C=N/n3cn[nH]c3=S)o2)c([N+](=O)[O-])c1
36.1 µM
